- assay target: T1, HCoV-229E NTD (17–265 aa) (human coronavirus 229E, UniProt P15423 17-265)
- T1 chain: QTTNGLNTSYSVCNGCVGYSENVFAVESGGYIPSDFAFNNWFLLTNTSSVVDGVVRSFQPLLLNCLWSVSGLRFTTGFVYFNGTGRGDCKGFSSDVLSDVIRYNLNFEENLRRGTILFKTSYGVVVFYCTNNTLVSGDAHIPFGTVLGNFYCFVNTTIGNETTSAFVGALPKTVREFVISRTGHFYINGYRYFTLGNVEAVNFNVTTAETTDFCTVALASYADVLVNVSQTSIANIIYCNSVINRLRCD
- assay summary: SPR
measurement kind: pKd
Conceptually, pKd converts a concentration in mol/L into minus its log10.

Examples from the recorded data:
{"binder": "Fab B09 (Fab, V domains shown) VH: EVQLVESGGGLVQPGGSLRLSCAASGFNLSYSSIHWVRQAPGKGLEWVAYIYPYYGSTYYADSVKGRFTISADTSKNTAYLQMNSLRAEDTAVYYCARSWSPSSSYPGYGGLDYWGQGTLVTVSS VL: DIQMTQSPSSLSASVGDRVTITCRASQSVSSAVAWYQQKPGKAPKLLIYSASSLYSGVPSRFSGSRSGTDFTLTISSLQPEDFATYYCQQSWSYYGSLFTFGQGTKVEIK", "observed": 6.63}
{"binder": "Fab B10 (Fab, V domains shown) VH: EVQLVESGGGLVQPGGSLRLSCAASGFNLSSSSMHWVRQAPGKGLEWVAYIYPSYSSTYYADSVKGRFTISADTSKNTAYLQMNSLRAEDTAVYYCARASGHFWAYGFDYWGQGTLVTVSS VL: DIQMTQSPSSLSASVGDRVTITCRASQSVSSAVAWYQQKPGKAPKLLIYSASSLYSGVPSRFSGSRSGTDFTLTISSLQPEDFATYYCQQYSYSGPFTFGQGTKVEIK", "observed": 8.26}
{"binder": "Fab A01 (Fab, V domains shown) VH: EVQLVESGGGLVQPGGSLRLSCAASGFNISSSYIHWVRQAPGKGLEWVASIYSYYSSTSYADSVKGRFTISADTSKNTAYLQMNSLRAEDTAVYYCARGGYAFYGYGSPHSWYALDYWGQGTLVTVSS VL: DIQMTQSPSSLSASVGDRVTITCRASQSVSSAVAWYQQKPGKAPKLLIYSASSLYSGVPSRFSGSRSGTDFTLTISSLQPEDFATYYCQQWWPGSWGPITFGQGTKVEIK", "observed": 7.51}

Input: // lookup pKd for Fab A11 (Fab, V domains shown) VH: EVQLVESGGGLVQPGGSLRLSCAASGFNIYSSYIHWVRQAPGKGLEWVASISSSYGYTYYADSVKGRFTISADTSKNTAYLQMNSLRAEDTAVYYCARGHGWAYVWSSYYPAGAFALDYWGQGTLVTVSS VL: DIQMTQSPSSLSASVGDRVTITCRASQSVSSAVAWYQQKPGKAPKLLIYSASSLYSGVPSRFSGSRSGTDFTLTISSLQPEDFATYYCQQSYALITFGQGTKVEIK
Output: 8.06

Just for reference, paper PMC9636267 is where these values come from.
